Tested on: A375 Sensitive cells
Method: Viability test, trypan blue exclusion, A375 Sensitive cells
Type: cell-based, human
Stated Conditions: Homo sapiens, A-375; 10 μM, 48 h; viable cells as percentage of DMSO control; read-out: Viab A375 10 μM/ 48 h
Reported viability at 10 µM values for the following molecules.
Answer with a number only, understood to be in %.

{"columns": ["Compound Smiles", "Study System", "Unit", "viability at 10 µM"],
 "data": [
  ["N=C(NC(=N)c1ccccc1)Nc1nc(-c2ccccc2)cs1", "A375 Sensitive cells", "%", 54.6],
  ["N=c1nc(C(Cl)(Cl)Cl)nc(Nc2ccc(Cl)cc2O)[nH]1", "A375 Sensitive cells", "%", 15.5],
  ["N=C(NC(=N)c1ccccc1Cl)Nc1nc(-c2cccc([N+](=O)[O-])c2)cs1", "A375 Sensitive cells", "%", 64.9]
]}

Query N=C(NC(=N)c1cccc(Cl)c1)Nc1nc2ccccc2s1 yields viability at 10 µM of 2.7

Query N=C(NC(=N)c1ccnc(Cl)c1)Nc1nc2ccccc2s1 yields viability at 10 µM of 2.3

Query N=C(NC(=N)C(Cl)(Cl)Cl)Nc1nc2ccccc2s1 yields viability at 10 µM of 4.7

Query Nc1nc(Nc2ccc(Cl)cc2SSc2cc(Cl)ccc2Nc2nc(N)nc(C(Cl)(Cl)Cl)n2)nc(C(Cl)(Cl)Cl)n1 yields viability at 10 µM of 4.7

Query N=C(NC(=N)c1cccnc1)Nc1nc2ccccc2s1 yields viability at 10 µM of 2.6

Query Cc1nc(NC(=N)NC(=N)c2ccccc2)sc1C yields viability at 10 µM of 39.1

Query N=C(NC(=N)c1ccc2ccccc2c1)Nc1nc2ccccc2s1 yields viability at 10 µM of 72.2

Query CC(=O)c1cccc(C(=N)NC(=N)Nc2nc3ccccc3s2)c1 yields viability at 10 µM of 3.8

Query N=C(NC(=N)c1ccnc(Br)c1)Nc1nc2ccccc2s1 yields viability at 10 µM of 3.7

Query CCOc1cccc(C(=N)NC(=N)Nc2nc3ccccc3s2)c1 yields viability at 10 µM of 26.1

Query Cc1csc(NC(=N)NC(=N)c2ccccc2)n1 yields viability at 10 µM of 150

Query Nc1nc(Nc2ccccc2SSc2ccccc2Nc2nc(N)nc(-c3ccccc3F)n2)nc(-c2ccccc2F)n1 yields viability at 10 µM of 40.3

Query Nc1nc(Nc2ccccc2O)nc(-c2cccc(Cl)c2)n1 yields viability at 10 µM of 65.4

Query N=C(NC(=N)c1ccccn1)Nc1nc2ccccc2s1 yields viability at 10 µM of 19.5

Query Cc1nc(NC(=N)NC(=N)c2ccccc2Br)sc1C yields viability at 10 µM of 39.3

Query Cc1nc(NC(=N)NC(=N)c2ccccc2Cl)sc1C yields viability at 10 µM of 35.9

Query N=C(NC(=N)c1cscc1Br)Nc1nc2ccccc2s1 yields viability at 10 µM of 55.6

Query N=c1nc(C(Cl)(Cl)Cl)nc(Nc2cc(Cl)ccc2O)[nH]1 yields viability at 10 µM of 27.7
